Kindly supply the reported survival values for the records listed here.
System: DeltatarO mutant
Assay: S. aureus survival, RN4220 and DeltatarO strains – OD600, teichoic acid synthesis inhibitors, primary screen (AID 463173)
Details: S. aureus RN4220 wild type/DeltatarO growth, OD600, 18 h, hits give low values, screened at 18.75 µg/mL (by protocol)
Screen size: about 52,000 compounds; about 4,300 (8.3%) were called active. The entries come from a sample that favours actives as a whole.
Write it as a number; the unit % goes unstated.

IN: Quick check: survival of Cc1ccc(-c2ccc(CCC(=O)O)n2-c2ccc(C)c(Cl)c2)cc1 ?
OUT: 42

IN: Quick check: survival of Cc1ccc2oc(-c3cccc(NC(=O)c4cccc5c(Cl)cccc45)c3)nc2c1 ?
OUT: 51

IN: Quick check: survival of COc1ccc(Cl)cc1NCc1nnc2n1CCCCC2 ?
OUT: 8

IN: Quick check: survival of COc1ccc(N(CC(=O)NCc2ccc(F)cc2)S(=O)(=O)c2c(C)noc2C)cc1 ?
OUT: 82

IN: Quick check: survival of COc1ccc(-c2ccc(CCC(=O)O)n2-c2ccc(Cl)cc2C)cc1 ?
OUT: 47

IN: Quick check: survival of Cc1cc(C)cc(NCc2nnc3n2CCCCC3)c1 ?
OUT: 89

IN: Quick check: survival of CCc1ccc(N2CC(C)Cn3c2nc2c3c(=O)n(CC(=O)O)c(=O)n2C)cc1 (configuration not stated) ?
OUT: 77

IN: Quick check: survival of O=C(NCc1ccccc1Cl)C1CCCN(C(=O)c2cnn(-c3ccc(F)cc3)c2-n2cccc2)C1 (configuration not stated) ?
OUT: 67

IN: Quick check: survival of Cc1ccc(-c2nc3ccccc3o2)cc1NC(=O)c1cccc2c(Cl)cccc12 ?
OUT: 47

IN: Quick check: survival of Cc1ccc(-n2c(CCC(=O)O)ccc2-c2cccs2)cc1Cl ?
OUT: 86

IN: Quick check: survival of COc1ccc(NCc2nnc3n2CCCCC3)c(OC)c1 ?
OUT: 100

IN: Quick check: survival of Cc1cc(C)cc(NC(=O)CSc2ccc(-c3cccs3)nn2)c1 ?
OUT: 73

IN: Quick check: survival of CC(C)Cn1c(SCC(N)=O)nc2ccccc2c1=O ?
OUT: 97

IN: Quick check: survival of C1=C(c2cccs2)OC(c2cccs2)=CC1c1cccs1 ?
OUT: 52

IN: Quick check: survival of O=S(=O)(c1ccc2nc(Nc3ccc(Br)cc3F)ccc2c1)N1CCCCC1 ?
OUT: 70

IN: Quick check: survival of CCOc1ccc(NC(=O)C2CC(=O)NC(=Nc3ccc(Cl)c(Cl)c3)S2)cc1 (configuration not stated) ?
OUT: 72

IN: Quick check: survival of CCOc1ccccc1N1CC(c2nc3ccccc3n2CCOc2ccc(C(C)(C)C)cc2)CC1=O (configuration not stated) ?
OUT: 62

IN: Quick check: survival of COc1ccc(S(=O)(=O)N(CC(=O)Nc2cccnc2)c2ccc(Cl)cc2)cc1 ?
OUT: 30

IN: Quick check: survival of Cc1cccc(C)c1OCc1nc2c3cnn(-c4ccccc4F)c3ncn2n1 ?
OUT: 109

IN: Quick check: survival of COc1ccc(-c2ccc(CCC(=O)O)n2-c2cc(Cl)ccc2O)cc1 ?
OUT: 52

IN: Quick check: survival of Cc1ccc(-n2c(CCC(=O)O)ccc2-c2cccs2)cc1C ?
OUT: 46

IN: Quick check: survival of Cc1c(C(=O)Nc2cccc(Cl)c2)oc2ccc(S(=O)(=O)N(C)C3CCCCC3)cc12 ?
OUT: 71

IN: Quick check: survival of O=C(CCCCCn1c(=O)[nH]c2ccsc2c1=O)NCc1ccccc1 ?
OUT: 89

IN: Quick check: survival of CCC(=O)Nc1ccc2nc(C3CC3)n(Cc3ccc(Cl)cc3)c(=O)c2c1 ?
OUT: 111

IN: Quick check: survival of CCOc1ccc(S(=O)(=O)N(CC(=O)Nc2cccnc2)c2ccccc2)cc1 ?
OUT: 114

IN: Quick check: survival of CC(C)C1N=C2c3ccccc3N=C(SCC(=O)NCc3ccc(F)cc3)N2C1=O (configuration not stated) ?
OUT: 73

IN: Quick check: survival of CCCSc1nnc2c(n1)OC(CC)N(C(C)=O)c1ccccc1-2 (configuration not stated) ?
OUT: 62

IN: Quick check: survival of Cc1cc(OCCn2c(C3CC(=O)N(Cc4ccc(F)cc4)C3)nc3ccccc32)ccc1Cl (configuration not stated) ?
OUT: 1

IN: Quick check: survival of COc1ccc(-c2ccc(CCC(=O)O)n2-c2ccccc2O)cc1 ?
OUT: 124

IN: Quick check: survival of O=C(NCc1cccnc1)c1nn(-c2ccc(F)cc2)nc1CO ?
OUT: 111

IN: Quick check: survival of CC(CNC(=O)c1ccc(CSc2nc3ccncc3n2Cc2ccccc2)cc1)c1ccccc1 (configuration not stated) ?
OUT: 78

IN: Quick check: survival of CS(=O)(=O)N(CC(=O)Nc1cccnc1)c1ccc(Cl)cc1 ?
OUT: 91

IN: Quick check: survival of O=C(CN(c1ccc(Cl)c(C(F)(F)F)c1)S(=O)(=O)c1ccccc1)N1CCc2ccccc2C1 ?
OUT: 42

IN: Quick check: survival of COc1ccc(N2CCN(S(=O)(=O)c3c(C)nc4sc(C)cn4c3=O)CC2)cc1 ?
OUT: 92

IN: Quick check: survival of Cc1ccc(-c2noc(CSc3nnc(C)n3-c3ccc(C)c(C)c3)n2)cc1 ?
OUT: 75

IN: Quick check: survival of O=C(CN(c1ccc(Cl)c(C(F)(F)F)c1)S(=O)(=O)c1ccccc1)Nc1cccnc1 ?
OUT: 47

IN: Quick check: survival of COc1ccc(N(CC(=O)Nc2cc(OC)cc(OC)c2)S(=O)(=O)c2c(C)noc2C)cc1 ?
OUT: 45

IN: Quick check: survival of Cc1cccc(NC(=O)CCCCCn2c(=O)[nH]c3ccsc3c2=O)c1 ?
OUT: 33

IN: Quick check: survival of COc1ccc(-c2ccc(CCC(=O)O)n2-c2ccccc2C(F)(F)F)cc1 ?
OUT: 116

IN: Quick check: survival of O=C(Cn1c(-c2cccs2)cc2ccccc21)NCCCN1CCN(c2ccccc2F)CC1 ?
OUT: 69

IN: Quick check: survival of Cc1ccc(C)c(NC(=O)Cn2cc(S(=O)(=O)c3ccc(F)cc3)c(=O)c3cc(F)ccc32)c1 ?
OUT: 87

IN: Quick check: survival of Cc1ccc(C(=O)c2oc3ccccc3c2NC(=O)c2cc(-c3ccc(Cl)cc3)on2)cc1 ?
OUT: 87
